Entries annotated with measured MIC
Test system: Streptococcus pneumoniae
method: Minimum inhibitory concentration of compound against Ery-R Streptococcus pneumoniae 303 was determined
Assay type: functional
Your answer should be a plain number; it is taken to be in µg/mL.

chem.smiles | MIC, µg/mL
CC[C@H]1OC(=O)[C@H](C)C(=O)[C@H](C)[C@@H](O[C@@H]2O[C@H](C)[C@@H](O)[C@H](N(C)C)[C@H]2O)[C@@](C)(OC)C[C@@H](C)C(=O)[C@H](C)[C@H]2N(CCCCn3cc(-c4ccccn4)nn3)C(=O)O[C@]12C | 16

Shifting focus to the molecule that follows.
Data request: Please look at this molecule and report its MIC: CC[C@H]1OC(=O)[C@H](C)C(=O)[C@H](C)[C@@H](O[C@@H]2O[C@H](C)[C@@H](O)[C@H](O)[C@H]2O)[C@@](C)(OC)C[C@@H](C)C(=O)[C@H](C)[C@H]2N(CCCCn3cc(-c4ccccn4)nn3)C(=O)O[C@]12C
Data returned: 16

Where these numbers come from: ChEMBL document CHEMBL1141993
